Data provenance is PubChem BioAssay AID1159580.

- ASSAY DETAILS: chemical genetic growth profiling, strain panel (AID 1159580);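 note: tested at 20 µM; growth read once vehicle control cultures reached saturation at 30 °C; 1 = growth at the plate median or of vehicle wells; lower values mean less growth of the strain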
- REPORTED CONDITIONS: S. cerevisiae deletion strains, growth OD, locus YKR026C, strain gcn3, active compounds read low
Hit rate of the full screen: of about 5,500 compounds, about 2,000 (36%) were called active. Not shown: some 18% with an inconclusive outcome. Some of the results follow.
Catalogue of normalized growth values
Lab note: record the figure alone, no unit after it.

compound="C[C@H]1O[C@@H](O[C@H]2[C@@H](O)C[C@H](O[C@H]3[C@@H](O)C[C@H](O[C@H]4CC[C@]5(C)C6C[C@@H](O)[C@]7(C)[C@@H](C8=CC(=O)OC8)CC[C@]7(O)C6CC[C@@H]5C4)O[C@@H]3C)O[C@@H]2C)C[C@H](O)[C@@H]1O (stereo not given in full)" reported_value=1

Exercise: Dear colleague, I am looking for the recorded normalized growth of the following compound: CC(=O)O[C@@H]1CC2C(C)(CC[C@H](O)C2(C)C)C2CC[C@]3(C)C(=CC(=O)O[C@H]3c3ccoc3)C21C (stereo not given in full)
Solution: 0.995

Exercise: Need normalized growth, item "NC(=O)c1ccc([N+](=O)[O-])cc1Cl"
Solution: 0.981

Exercise: Which normalized growth value is on record for "Cc1c(C(N)=O)cc([N+](=O)[O-])cc1[N+](=O)[O-]" ?
Solution: 1.02

Exercise: Name the reported normalized growth value associated with the compound "NCCCN"
Solution: 0.986

---

Collected normalized growth values appear next to each entry.
- ASSAY DETAILS: chemical genetic growth profiling, strain panel (AID 1159580);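 note: tested at 20 µM; growth read once vehicle control cultures reached saturation at 30 °C; 1 = growth at the plate median or of vehicle wells; lower values mean less growth of the strain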
- REPORTED CONDITIONS: S. cerevisiae deletion strains, growth OD, locus YBR135W, strain CKS1, active compounds read low
Screen size: about 5,500 compounds; about 2,000 (36%) were called active. Inconclusive results (about 18%) are left out. The list shows a part of the results.
The answer should be written as a number, with no unit following it.

// worked examples, normalized growth included
molecule=FC(F)(F)Sc1ccc(OCc2n[nH]c(=S)n2-c2ccccc2)cc1 reported_value=0.988
molecule=O=c1cc(CSc2ccc(Cl)cc2)c2ccc(O)cc2o1 reported_value=0.944
molecule=O=C(Nc1ccc(SC(F)(F)F)cc1)Nc1ccc(Oc2cccc(C(F)(F)F)c2)nc1 reported_value=0.992
molecule=O=C(O/N=C1/CCCc2[nH]c3ccccc3c21)c1ccc(Cl)cc1Cl reported_value=0.974
molecule=CO/N=C1/CC(C)(C)Cc2c(-c3ccn(C(=O)Nc4cccc(Cl)c4)n3)sc(SC)c21 reported_value=0.968

Exercise: Fill in: normalized growth of "O=C(O/N=C1/CCCc2[nH]c3ccccc3c21)C1CCCCC1" is ___
Solution: 0.964

Exercise: Look at this molecule and give its reported normalized growth. "N/C(=N/OC(=O)c1ccc([N+](=O)[O-])cc1)c1c(Cl)cccc1Cl"
Solution: 0.949

Exercise: Reported normalized growth for "Cc1ccc(Sc2ncccc2NS(=O)(=O)c2ccc(Cl)cc2)cc1" : what is it?
Solution: 0.935

Exercise: Could you share which normalized growth value was measured for "CC1(C)C=Cc2cc(/C(N)=N\OC(=O)Nc3cccc(C(F)(F)F)c3)ccc2O1" ?
Solution: 0.969

Exercise: If you can, please state the reported normalized growth value of "COc1ccc(Br)c(C(=O)/C(C#N)=C/c2cccs2)c1" .
Solution: 0.903

Exercise: Find the recorded normalized growth belonging to COc1ccccc1N1CCN(C(=O)C(C)c2ccc(CC(C)C)cc2)CC1 (configuration not stated) and report it.
Solution: 0.978

Exercise: Query (molecule): "CN1/C(=C/C=C/c2ccc3ccccc3[n+]2C)C=Cc2ccccc21" ; field requested: normalized growth
Solution: 0.901
